# target.desc: T1, human BKB2R-derived epitope peptide (SEQ ID NO:73), PEG-biotin (human, also: PEG-biotin, site not given here)
# T1 construct: also called immunogenic human BKB2R peptide fragment
# T1 peptide: KEYSDEGHNVTAC
# measurement.notes: BLI (Octet), peptide-PEG-biotin on streptavidin sensor, antibody 250 nM
Where no end group is shown, it is not given here.
recorded.metric: pKd
Give only the number. pKd is defined as minus log10 of concentration in molar units.

A selection of reference data follows.
{"binder": "humanized anti-BKB2R antibody L1/H1 (antibody, human IgG2, kappa, V domains shown, also called H1/L1) VH: EVQLVESGGGLVQPGGSLRLSCAASGFTFSDYWMSWVRQAPGKGLEWVAEIRLKSDNYATHYAESVKGRFTISRDNAKNSLYLQMNSLRAEDTAVYYCTRDYYAMEYWGQGTLVTVSS VL: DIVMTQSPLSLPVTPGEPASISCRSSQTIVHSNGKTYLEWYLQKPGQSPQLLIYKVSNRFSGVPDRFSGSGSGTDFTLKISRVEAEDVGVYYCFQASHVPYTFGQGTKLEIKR", "pKd": 6.36}
{"binder": "chimeric/humanized anti-BKB2R antibody L1/HC (antibody, human IgG2, V domains shown, not shown: human IgG2 constant region) VH: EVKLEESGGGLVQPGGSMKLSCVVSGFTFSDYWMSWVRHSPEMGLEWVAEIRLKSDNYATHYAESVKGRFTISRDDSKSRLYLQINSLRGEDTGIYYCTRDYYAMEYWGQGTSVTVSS VL: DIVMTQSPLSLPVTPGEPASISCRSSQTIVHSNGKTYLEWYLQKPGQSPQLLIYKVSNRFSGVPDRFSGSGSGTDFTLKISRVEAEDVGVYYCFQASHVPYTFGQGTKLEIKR", "pKd": 5.52}
{"binder": "humanized anti-BKB2R antibody L2/H2 (antibody, human IgG2, kappa, V domains shown, also called H2/L2) VH: EVQLVESGGGLVQPGGSLRLSCVASGFTFSDYWMSWVRQAPGKGLEWVAEIRLKSDNYATHYAESVKGRFTISRDDAKNSLYLQMNSLRAEDTAVYYCTRDYYAMEYWGQGTLVTVSS VL: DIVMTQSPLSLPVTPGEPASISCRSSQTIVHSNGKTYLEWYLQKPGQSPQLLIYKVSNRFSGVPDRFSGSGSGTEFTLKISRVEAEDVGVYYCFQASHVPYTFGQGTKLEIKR", "pKd": 7.69}

QUERY: Report pKd for humanized anti-BKB2R antibody L2/H1 (antibody, human IgG2, kappa, V domains shown) VH: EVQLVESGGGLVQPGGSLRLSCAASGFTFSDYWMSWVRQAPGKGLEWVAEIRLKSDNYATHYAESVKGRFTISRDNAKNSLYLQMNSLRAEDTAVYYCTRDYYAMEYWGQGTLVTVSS VL: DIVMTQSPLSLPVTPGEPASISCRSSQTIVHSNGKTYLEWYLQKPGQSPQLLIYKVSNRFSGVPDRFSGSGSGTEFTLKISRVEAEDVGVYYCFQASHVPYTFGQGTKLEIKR please.
RESULT: 7.69
